Tested on: Fibroblast
Test: Multiplex assay against human fibroblast
Type: toxicity, cell-based
Details: 12 h, 1 µM, compound concentration 1 uM, replicate 2
Non-standard residues stand in square brackets, D forms with d. Residues, ends and D or L forms follow the SMILES beside them.
Class Fulfilled: Population Apoptotic (%) at least 30%. Class Not fulfilled: Population Apoptotic (%) below 30%.

query: Does the molecule O=C(Nc1cc(-c2ccccc2)nn1-c1ccccc1F)c1ccc([N+](=O)[O-])cc1 have recorded Population Apoptotic (%) that is 30% or more?
result: Fulfilled

query: Does the molecule COCCCN1CCC(NC(=O)c2cc(Cl)c(N)c3c2OCC3)CC1 [PRUCALOPRIDE] have recorded Population Apoptotic (%) that is 30% or more?
result: Fulfilled

query: Does the molecule COc1cc(OC2CCN(C(C)=O)CC2)ccc1C(=O)N1CCC(N2C(=O)OCc3ccccc32)CC1 have recorded Population Apoptotic (%) that is 30% or more?
result: Fulfilled

query: Does the molecule CC(C)C[C@@H]1NC(=O)[C@@H](C(C)C)NC(=O)[C@@H]2CCCN2C(=O)[C@@H](CC(=O)O)NC(=O)[C@@H](Cc2c[nH]c3ccccc23)NC1=O [BQ-123] (cyclo(L[dW][dD]P[dV])) have recorded Population Apoptotic (%) that is 30% or more?
result: Not fulfilled

query: Does the molecule S=C(NCCCc1c[nH]cn1)NCCCN(Cc1ccc(Cl)c(Cl)c1)c1ccc(Br)cn1 have recorded Population Apoptotic (%) that is 30% or more?
result: Fulfilled

----------
Test system: U2OS
Test: Multiplex assay against U2OS
Format: toxicity, cell-based
Settings: human, 48 h, 10 µM, compound concentration 10 uM, replicate 1
Returns: string. Value is criterion met if measured Total Cell Count is below 400, and criterion not met if it is greater than or equal to it.

CSc1nc(NC2CCCC2)c([N+](=O)[O-])c(NC2CCCC2)n1
criterion not met
Nc1nc(CC(=O)Nc2ccc(CCNC[C@H](O)c3ccccc3)cc2)cs1
criterion not met
S=C(NCCCc1c[nH]cn1)NCCCN(Cc1ccc(Cl)c(Cl)c1)c1ccc(Br)cn1
criterion met
COc1cc(C(=O)N2CC[C@@H](O)[C@@H](N)C2)cc2nc(-c3cc4ccccc4n3CC3CC3)n(C)c12.Cl
criterion met
Nc1nc(-c2ccco2)c2cnn(Cc3ccccc3F)c2n1
criterion met

query: In plain terms, does CCC(=O)OCC(=O)[C@@]1(OC(=O)CC)[C@@H](C)C[C@H]2[C@@H]3CCC4=CC(=O)C=C[C@]4(C)[C@@]3(Cl)[C@@H](O)C[C@@]21C [BECLOMETHASONE DIPROPIONATE] come in under 400 for Total Cell Count?
result: criterion met

----------
System: U2OS
Experiment: Multiplex assay against U2OS
Assay type: toxicity, cell-based
Conditions: human, 24 h, 10 µM, compound concentration 10 uM, replicate 2
Non-standard residues stand in square brackets, D forms with d. Residues, ends and D or L forms follow the SMILES beside them.
MEASURED QUANTITY: Total Cell Count
API doc: respond with a numeric literal and nothing else, no unit.

CN(C)C/C=C/C(=O)Nc1ccc(C(=O)N2CCCC(Nc3ncc(Cl)c(-c4c[nH]c5ccccc45)n3)C2)cc1 (stereo unspecified)
135
Cc1sc2c(c1C)C(c1ccc(Cl)cc1)=N[C@H](CC(=O)OC(C)(C)C)c1nnc(C)n1-2
130
COc1cc2nc(N3CCN(C(=O)COc4c(OC)cccc4C(C)C)CC3)nc(N)c2cc1OC.Cl.Cl
185
CN1CCC(C(=O)c2cccc(NC(=O)c3c(F)cc(F)cc3F)n2)CC1
126

query: Any idea what Total Cell Count was measured for CC(C)C[C@@H]1NC(=O)[C@@H](C(C)C)NC(=O)[C@@H]2CCCN2C(=O)[C@@H](CC(=O)O)NC(=O)[C@@H](Cc2c[nH]c3ccccc23)NC1=O [BQ-123] (cyclo(L[dW][dD]P[dV])) ?
result: 113

query: Any idea what Total Cell Count was measured for O=c1ccc2ccc(OCCCCN3CCN(c4cccc5sccc45)CC3)cc2[nH]1 [BREXPIPRAZOLE] ?
result: 112

query: Any idea what Total Cell Count was measured for COC(c1ccccc1)(c1ccccc1)[C@H](Oc1nc(C)cc(C)n1)C(=O)O [AMBRISENTAN] ?
result: 115

query: Any idea what Total Cell Count was measured for CSc1nc(NC2CCCC2)c([N+](=O)[O-])c(NC2CCCC2)n1 [GS-39783] ?
result: 164

query: Any idea what Total Cell Count was measured for CN1CCN(c2ccc(Nc3c4ccccc4nc4ccccc34)cc2)CC1.Cl.Cl.O ?
result: 148
